From: patent US20210395313A1

# pIC50 per entry
- SUBJECT_OF_TEST: rat PAC1 receptor (Rattus norvegicus, UniProt P32215)
- Construct: SHSY-5Y (human neuroblastoma cell line) and RG-2 (rat glioma cell line) cells endogenously express human and rat PAC1 receptors, respectively; endogenous in cells; host or cells: RG-2 rat glioma cells
- Sequence (P32215 20-523): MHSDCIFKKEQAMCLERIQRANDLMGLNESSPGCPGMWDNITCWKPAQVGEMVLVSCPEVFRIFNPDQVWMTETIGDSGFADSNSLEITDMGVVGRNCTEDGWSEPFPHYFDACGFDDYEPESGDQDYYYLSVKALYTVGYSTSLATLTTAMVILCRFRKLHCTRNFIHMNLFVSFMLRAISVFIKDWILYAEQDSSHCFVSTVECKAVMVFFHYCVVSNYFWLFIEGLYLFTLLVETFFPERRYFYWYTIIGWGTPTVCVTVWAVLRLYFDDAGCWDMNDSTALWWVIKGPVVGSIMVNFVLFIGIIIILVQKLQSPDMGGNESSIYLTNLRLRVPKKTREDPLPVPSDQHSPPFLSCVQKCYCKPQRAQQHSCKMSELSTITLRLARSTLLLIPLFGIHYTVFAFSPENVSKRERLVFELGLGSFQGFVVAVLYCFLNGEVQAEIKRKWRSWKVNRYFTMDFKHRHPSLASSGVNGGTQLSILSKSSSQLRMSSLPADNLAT
- EXPERIMENT: LANCE Ultra cAMP accumulation antagonist assay in RG-2 cells;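 also: RG-2 rat glioma cells endogenously expressing PAC1, test peptide preincubated 30 min, then PAC1 agonist added at its EC80 for 15 min, cAMP accumulation read by LANCE Ultra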
- Type: cell-based
pIC50: −log10 of the molar value. Bridges are numbered along the chain shown (N, C = ends). Where no end group is shown, it is not given here.
MEASUREMENT_KIND: pIC50

1. CDATCQFRKAIDDCYYRSWHSNVPGSVFKACMKFRFNVWKAG-NH2 (disulfide 1-5, 14-31) [compound 67]    9.00 to 11.00
2. CDATCQFRKAIDDCDRQAHHSNVPGSVFKACMKQKKKEWKAN (disulfide 1-5, 14-31) [compound 159]    9.00 to 11.00
3. CDATCQFRKAIDDCQKQAHHSNVPGSVFKACMKQKKKEFKAH (disulfide 1-5, 14-31) [compound 153]    9.00 to 11.00
4. CDATCQFRKAIDDCAWFALHSNVPGSVFKACMKQKKKEFKAG-NH2 (disulfide 1-5, 14-31) [compound 91]    9.00 to 11.00
5. CDATCQFRKAIDDCQKQAHHSNVPGSVFKACMKQRKKRWLAG-NH2 (disulfide 1-5, 14-31) [compound 126]    9.00 to 11.00
6. CDATCQFRKAIDDCQKQAHHSNVPGSVFKTCMKQKKKEFKAG-NH2 (disulfide 1-5, 14-31) [compound 146]    9.00 to 11.00
7. CDATCQFRKAIDDCQKQAHHSNVPGSVFKACVLQKKKEFKAG-NH2 (disulfide 1-5, 14-31) [compound 93]    7.00 to 9.00
8. CDATCQFRKAIDDCARQAHHSNVPGSVFKACMKQKKKEWKAGH-NH2 (disulfide 1-5, 14-31) [compound 2]    9.00 to 11.00
9. CDATCQFRKAIDDCVRQAHHSNVPGSVFKACMKQKKKEWKAN (disulfide 1-5, 14-31) [compound 87]    9.00 to 11.00
10. CDATCQFRKAIDDCARQAHHSNVPGSVFKACLKQKKKEWKAGH (disulfide 1-5, 14-31) [compound 41]    9.00 to 11.00
11. CDATCQFRKAIDDCQKQAHHSNVPGSVFKACLVQKKKEFKAG-NH2 (disulfide 1-5, 14-31) [compound 101]    7.00 to 9.00
12. SCDATCQFRKAIDDCQKQAHHSNVPGSVFKACMKQKKKEFKAG-NH2 (disulfide 2-6, 15-32) [SEQ ID NO 183]    9.00 to 11.00
13. CDATCQFRKAIDDCARQAHHSNVPGSVWKACMKQKKKEWKAGH (disulfide 1-5, 14-31) [SEQ ID NO 105]    9.00 to 11.00
14. CDATCQFRKAIDECARQAHHSNVPGSVFKACMKQKKKEWKAGH (disulfide 1-5, 14-31) [compound 25]    > 11.00
